Taken from patent US20220289724A1.

# tested on: Recombinant human KIF18A (1-467 His-tagged) protein (Homo sapiens, UniProt Q8NI77)
# Construct: Recombinant human KIF18A (1-467 His-tagged) protein; His
# Sequence (Q8NI77 1-467): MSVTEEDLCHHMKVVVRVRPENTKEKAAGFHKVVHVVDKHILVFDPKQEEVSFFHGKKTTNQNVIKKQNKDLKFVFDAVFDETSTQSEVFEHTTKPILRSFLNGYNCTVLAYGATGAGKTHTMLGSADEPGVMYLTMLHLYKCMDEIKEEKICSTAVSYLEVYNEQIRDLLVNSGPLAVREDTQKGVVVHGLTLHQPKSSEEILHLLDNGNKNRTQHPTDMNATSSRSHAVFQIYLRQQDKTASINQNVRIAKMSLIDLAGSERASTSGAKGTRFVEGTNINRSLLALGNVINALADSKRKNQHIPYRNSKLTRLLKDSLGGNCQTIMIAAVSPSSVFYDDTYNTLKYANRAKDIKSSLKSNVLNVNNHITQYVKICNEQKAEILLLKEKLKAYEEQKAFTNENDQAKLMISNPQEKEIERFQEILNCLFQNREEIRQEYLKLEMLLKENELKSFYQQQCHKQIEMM
# Sequence (P02550 whole entry partner): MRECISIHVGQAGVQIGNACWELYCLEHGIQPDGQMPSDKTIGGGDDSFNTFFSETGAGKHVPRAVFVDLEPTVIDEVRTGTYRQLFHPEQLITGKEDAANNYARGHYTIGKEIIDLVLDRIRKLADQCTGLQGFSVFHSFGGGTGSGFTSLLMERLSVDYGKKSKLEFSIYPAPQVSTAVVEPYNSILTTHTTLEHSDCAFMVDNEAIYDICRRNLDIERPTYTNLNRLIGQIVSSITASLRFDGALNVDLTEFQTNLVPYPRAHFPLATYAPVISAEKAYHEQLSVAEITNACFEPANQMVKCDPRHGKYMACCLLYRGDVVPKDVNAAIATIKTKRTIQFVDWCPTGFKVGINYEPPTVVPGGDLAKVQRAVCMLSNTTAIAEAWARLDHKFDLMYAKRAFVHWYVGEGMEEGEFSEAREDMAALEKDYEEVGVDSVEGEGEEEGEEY
# Sequence (P02554 whole entry partner): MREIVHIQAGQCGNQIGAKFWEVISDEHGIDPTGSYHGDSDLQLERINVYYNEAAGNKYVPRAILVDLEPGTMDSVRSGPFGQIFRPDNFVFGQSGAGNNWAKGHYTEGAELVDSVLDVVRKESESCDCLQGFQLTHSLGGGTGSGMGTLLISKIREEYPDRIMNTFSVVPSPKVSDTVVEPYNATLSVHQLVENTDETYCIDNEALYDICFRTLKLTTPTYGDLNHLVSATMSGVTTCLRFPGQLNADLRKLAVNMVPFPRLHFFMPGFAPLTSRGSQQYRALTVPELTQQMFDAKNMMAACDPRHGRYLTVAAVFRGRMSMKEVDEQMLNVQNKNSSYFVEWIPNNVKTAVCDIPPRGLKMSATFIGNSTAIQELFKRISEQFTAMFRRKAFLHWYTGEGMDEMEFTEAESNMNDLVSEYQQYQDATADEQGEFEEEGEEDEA
# assay notes: KIF18A Enzyme Assay: microtubule-stimulated ATPase activity assay (ADP-Glo)
# run conditions: KIF18A protein 30 nM, 30 μg/mL pig microtubules, ATP at Km 75 μM, ADP-Glo luminescence, RT
# From the text: KIF18A Enzyme Assay: Microtubule-stimulated ATPase activity assay is used to measure KIF18A enzyme activity after treatment with compound. Compounds were 2-fold serially diluted in DMSO (Sigma Inc) over 22-point concentration range. […]
recorded metric: IC50 (nM)

Worked set:
CC(C)(C)NS(=O)(=O)c1cccc(NC(=O)c2ccc(S(=O)(=O)C3(C)COC3)cc2N2CCC3(CC2)CC3)c1 | 173
CC(C)(C)NS(=O)(=O)c1cccc(NC(=O)c2ccc(NC(C)(C)CO)cc2N2CCC3(CC2)CC3)c1 | 58
CS(=O)(=O)c1ccc(C(=O)Nc2cccc3c2OCCC3)c(N2CCC3(CC2)CC3)c1 | 45

[a] CC(C)(C)NS(=O)(=O)c1cccc(NC(=O)c2ccc(S(N)(=O)=O)cc2N2CCC3(CC2)CC3)c1
[b] C[C@@H]1CN(c2cccc(NC(=O)c3ccc(NS(=O)(=O)CCO)cc3N3CCC4(CC3)CC4)c2)CCO1
[c] CC(C)(CO)Nc1cccc(NC(=O)c2ccc(NS(=O)(=O)C3(C)CC3)cc2N2CCC3(CC2)CC3)c1
[d] CS(=O)(=O)c1ccc(C(=O)Nc2cccc3ccoc23)c(N2CCC3(CC2)CC3)c1
Input line: Please produce an ascending ranking of these compounds based on IC50. Quick reminder: the answer is the labels in the order asked.
Output line: a, b, c, d
(a: 40 nM, b: 71 nM, c: 115 nM, d: 200 nM)
